The reported numbers originate from patent US9499495B2.

# tested-on: B-RAFV600E (Homo sapiens, UniProt P15056, V600E)
# Sequence (P15056 416-766 V600E limits assumed): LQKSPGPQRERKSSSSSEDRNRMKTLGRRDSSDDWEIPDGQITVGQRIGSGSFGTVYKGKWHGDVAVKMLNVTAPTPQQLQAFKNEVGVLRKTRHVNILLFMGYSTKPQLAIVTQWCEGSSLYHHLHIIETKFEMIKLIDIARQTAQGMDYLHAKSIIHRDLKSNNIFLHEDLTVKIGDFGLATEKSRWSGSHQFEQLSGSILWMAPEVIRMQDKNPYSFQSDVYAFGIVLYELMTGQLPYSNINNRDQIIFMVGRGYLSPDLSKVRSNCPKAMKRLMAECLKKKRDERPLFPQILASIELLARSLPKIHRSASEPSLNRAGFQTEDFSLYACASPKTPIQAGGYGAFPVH
# experimental-protocol: B-RAFV600E radiometric assay
# measurement-parameters: read-out: Kinase assay B-Raf
parameter: IC50

Solved cases below.
- structure-notation: "CCCS(=O)(=O)Nc1cccc(-c2ccc3nc(-c4ccc(N)nc4)nc(N4CCOCC4)c3n2)c1F"
  tested-on: "B-RAFV600E (Homo sapiens, UniProt P15056, V600E)"
  IC50: "100 to 1000 nM"
- structure-notation: "COc1cc(-c2cccc(NS(=O)(=O)c3cc(F)ccc3F)c2F)cc2c(N3CCOCC3)nc(-c3ccc(N)nc3)nc12"
  tested-on: "B-RAFV600E (Homo sapiens, UniProt P15056, V600E)"
  IC50: "1 to 100 nM"
- structure-notation: "C[C@@H]1COCCN1c1nc(-c2cnc(N)cc2C(F)(F)F)nc2ccc(-c3cccc(NS(=O)(=O)CCCF)c3F)nc12"
  tested-on: "B-RAFV600E (Homo sapiens, UniProt P15056, V600E)"
  IC50: "1 to 100 nM"
- structure-notation: "O=S(=O)(CCCF)Nc1cccc(-c2ccc3nc(-c4cnc(NCCCO)nc4)nc(N4CCOCC4)c3n2)c1F"
  tested-on: "B-RAFV600E (Homo sapiens, UniProt P15056, V600E)"
  IC50: "1 to 100 nM"
- structure-notation: "Nc1ccc(-c2nc(N3CCOCC3)c3cc(-c4cccc(NS(=O)(=O)CCCF)c4F)cc(N4CCCC4)c3n2)cn1"
  tested-on: "B-RAFV600E (Homo sapiens, UniProt P15056, V600E)"
  IC50: "1 to 100 nM"
- structure-notation: "Cc1nc(N)ncc1-c1nc(N2CCOC[C@@H]2C)c2nc(-c3cccc(NS(=O)(=O)CCCF)c3F)ccc2n1"
  tested-on: "B-RAFV600E (Homo sapiens, UniProt P15056, V600E)"
  IC50: "100 to 1000 nM"
- structure-notation: "C[C@H]1COCCN1c1nc(-c2cnc(N)cc2F)nc2ccc(-c3cccc(NS(=O)(=O)CCCF)c3F)nc12"
  tested-on: "B-RAFV600E (Homo sapiens, UniProt P15056, V600E)"
  IC50: "1 to 100 nM"
- structure-notation: "C[C@@H]1COCCN1c1nc(-c2ccc(N)nc2)nc2c(OC3CCCC3)cc(-c3cccc(NS(=O)(=O)CCCF)c3F)cc12"
  tested-on: "B-RAFV600E (Homo sapiens, UniProt P15056, V600E)"
  IC50: "1 to 100 nM"

Just so you know, measured IC50 for COCCNc1ccc(-c2nc(N3CCOCC3)c3nc(-c4cccc(NS(=O)(=O)CCCF)c4F)ccc3n2)cn1 came out at 1 to 100 nM

Just so you know, measured IC50 for CCCS(=O)(=O)Nc1cccc(-c2cc(C)c3nc(-c4ccc(N)nc4)nc(N4CCOCC4)c3c2)c1F came out at 100 to 1000 nM

Just so you know, measured IC50 for CCCS(=O)(=O)Nc1cccc(-c2cc(OC)c3nc(-n4c(CO)nc5ccccc54)nc(N4CCOCC4)c3c2)c1F came out at 100 to 1000 nM

Just so you know, measured IC50 for C[C@@H]1COCCN1c1nc(-c2cnc(N)cc2F)nc2ccc(-c3cccc(NS(=O)(=O)CCCF)c3F)nc12 came out at 1 to 100 nM
